Each item that follows carries a reported log10 of Kd.
- TARGET OR SYSTEM: T1, EsCas13d, nuclease-dead (Eubacterium siraeum, UniProt B0MS50, R295A;H300A;R849A;H854A)
- T1 sequence: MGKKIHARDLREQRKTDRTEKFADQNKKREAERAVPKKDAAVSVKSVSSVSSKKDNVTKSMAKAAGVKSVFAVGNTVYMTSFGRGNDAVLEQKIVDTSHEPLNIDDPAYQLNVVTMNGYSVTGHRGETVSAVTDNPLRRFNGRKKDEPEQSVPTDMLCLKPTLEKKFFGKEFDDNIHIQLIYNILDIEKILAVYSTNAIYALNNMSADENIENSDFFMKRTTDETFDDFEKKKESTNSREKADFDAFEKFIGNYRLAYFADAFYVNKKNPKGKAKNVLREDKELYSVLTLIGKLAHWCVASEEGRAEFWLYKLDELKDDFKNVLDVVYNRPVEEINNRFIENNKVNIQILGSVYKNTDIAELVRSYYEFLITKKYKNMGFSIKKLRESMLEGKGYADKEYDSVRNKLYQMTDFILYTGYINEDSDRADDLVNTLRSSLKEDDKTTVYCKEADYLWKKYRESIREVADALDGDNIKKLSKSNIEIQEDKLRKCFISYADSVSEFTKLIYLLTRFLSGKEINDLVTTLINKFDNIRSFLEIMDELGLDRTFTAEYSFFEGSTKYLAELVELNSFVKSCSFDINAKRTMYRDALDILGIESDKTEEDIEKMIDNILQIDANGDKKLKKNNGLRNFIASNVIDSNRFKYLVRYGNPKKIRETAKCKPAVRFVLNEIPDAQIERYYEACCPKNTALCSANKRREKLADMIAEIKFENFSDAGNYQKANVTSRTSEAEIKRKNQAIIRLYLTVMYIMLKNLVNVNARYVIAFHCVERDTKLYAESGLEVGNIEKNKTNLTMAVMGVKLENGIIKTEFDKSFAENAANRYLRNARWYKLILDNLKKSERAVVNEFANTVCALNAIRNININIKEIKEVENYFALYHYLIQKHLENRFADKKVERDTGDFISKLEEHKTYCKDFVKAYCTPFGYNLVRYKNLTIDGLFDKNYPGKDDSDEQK
- PROTOCOL: crRNA (strand 1, pre-loaded); Mg2+; 40 mM Tris-HCl pH 7.5, 150 mM NaCl, 6 mM MgCl2, 1 mM DTT, 0.1% Tween-20, 0.2 mg/ml BSA; 25 C; 10 min per concentration, then washed
- CONDITIONS USED: tags: His6-TwinStrep-SUMO cleaved; N-terminal SNAP kept (SNAP-Surface 488); label: 3' end held by stalled T7 RNA polymerase
ENDPOINT NAME: log10 of Kd (log10 of the value in nM)

{"columns": ["BINDER", "log10 of Kd"],
 "data": [
  ["target 2 MT 5'PFS UAA 3'PFS AAG (mixed) RNA 1: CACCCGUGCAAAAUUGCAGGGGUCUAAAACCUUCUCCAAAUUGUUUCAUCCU RNA 2: GGGAAUGGAUCCACAUCUACGAAUUCUAAAGGAUGAAACAAUUUGGAGAAGAAGAGAUCGGAAGAGCACACGU", 0.65],
  ["target 1 insU 3' of 21,insC 3' of 18 (mixed) RNA 1: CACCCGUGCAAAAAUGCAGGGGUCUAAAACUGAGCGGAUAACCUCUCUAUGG RNA 2: GGGAAUGGAUCCACAUCUACGAAUUCGUACCUAUACGAGAGGUUAUCCGCUCACCGAGAUCGGAAGAGCACACGU", 1.72],
  ["target 1 MT 5'PFS GGG 3'PFS CAA (mixed) RNA 1: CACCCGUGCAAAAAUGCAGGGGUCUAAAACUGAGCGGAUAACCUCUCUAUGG RNA 2: GGGAAUGGAUCCACAUCUACGAAUUCGGGCCAUAGAGAGGUUAUCCGCUCACAAAGAUCGGAAGAGCACACGU", 1.70],
  ["target 3 insC 3' of 8,insC 3' of 7 (mixed) RNA 1: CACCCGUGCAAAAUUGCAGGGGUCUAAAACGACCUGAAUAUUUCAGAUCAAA RNA 2: GGGAAUGGAUCCACAUCUACGAAUUCGUUUUUGAUCUGAAAUAUCUCCAGGUCUGCAGAUCGGAAGAGCACACGU", 1.89],
  ["target 1 MT 5'PFS GUU 3'PFS UAU (mixed) RNA 1: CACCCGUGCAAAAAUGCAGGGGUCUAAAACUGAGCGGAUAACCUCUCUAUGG RNA 2: GGGAAUGGAUCCACAUCUACGAAUUCGUUCCAUAGAGAGGUUAUCCGCUCAUAUAGAUCGGAAGAGCACACGU", 1.23],
  ["target 2 MT 5'PFS CAU 3'PFS UGA (mixed) RNA 1: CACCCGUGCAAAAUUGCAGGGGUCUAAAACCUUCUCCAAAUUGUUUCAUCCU RNA 2: GGGAAUGGAUCCACAUCUACGAAUUCCAUAGGAUGAAACAAUUUGGAGAAGUGAAGAUCGGAAGAGCACACGU", 0.65],
  ["target 2 MT 5'PFS GGA 3'PFS ACG (mixed) RNA 1: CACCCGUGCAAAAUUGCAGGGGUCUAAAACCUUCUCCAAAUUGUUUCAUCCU RNA 2: GGGAAUGGAUCCACAUCUACGAAUUCGGAAGGAUGAAACAAUUUGGAGAAGACGAGAUCGGAAGAGCACACGU", 1.14],
  ["target 1 MT 5'PFS UGG 3'PFS UUU (mixed) RNA 1: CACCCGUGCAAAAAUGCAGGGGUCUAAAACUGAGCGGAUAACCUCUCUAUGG RNA 2: GGGAAUGGAUCCACAUCUACGAAUUCUGGCCAUAGAGAGGUUAUCCGCUCAUUUAGAUCGGAAGAGCACACGU", 1.77],
  ["target 2 MT 5'PFS UAC 3'PFS AGA (mixed) RNA 1: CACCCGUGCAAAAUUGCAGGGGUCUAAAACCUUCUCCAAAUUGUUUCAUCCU RNA 2: GGGAAUGGAUCCACAUCUACGAAUUCUACAGGAUGAAACAAUUUGGAGAAGAGAAGAUCGGAAGAGCACACGU", 0.83],
  ["target 1 insG 3' of 16,insG 3' of 14 (mixed) RNA 1: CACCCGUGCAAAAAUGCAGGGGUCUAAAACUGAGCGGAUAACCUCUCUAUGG RNA 2: GGGAAUGGAUCCACAUCUACGAAUUCGUACCAUAGAGGAGGGUUAUCCGCUCACCGAGAUCGGAAGAGCACACGU", 1.19],
  ["target 1 MT 5'PFS GUG 3'PFS GGC (mixed) RNA 1: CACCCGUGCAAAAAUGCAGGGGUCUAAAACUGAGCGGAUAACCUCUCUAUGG RNA 2: GGGAAUGGAUCCACAUCUACGAAUUCGUGCCAUAGAGAGGUUAUCCGCUCAGGCAGAUCGGAAGAGCACACGU", 1.15],
  ["target 2 MT 5'PFS AGA 3'PFS UCA (mixed) RNA 1: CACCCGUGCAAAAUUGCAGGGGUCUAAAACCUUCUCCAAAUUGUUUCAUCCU RNA 2: GGGAAUGGAUCCACAUCUACGAAUUCAGAAGGAUGAAACAAUUUGGAGAAGUCAAGAUCGGAAGAGCACACGU", 0.91],
  ["target 2 MT 5'PFS CAC 3'PFS UCU (mixed) RNA 1: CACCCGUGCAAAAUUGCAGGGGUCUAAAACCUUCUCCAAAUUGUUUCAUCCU RNA 2: GGGAAUGGAUCCACAUCUACGAAUUCCACAGGAUGAAACAAUUUGGAGAAGUCUAGAUCGGAAGAGCACACGU", 0.67],
  ["target 1 MT 5'PFS CUA 3'PFS AAG (mixed) RNA 1: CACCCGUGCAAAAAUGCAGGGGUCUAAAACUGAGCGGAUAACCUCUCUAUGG RNA 2: GGGAAUGGAUCCACAUCUACGAAUUCCUACCAUAGAGAGGUUAUCCGCUCAAAGAGAUCGGAAGAGCACACGU", 1.06],
  ["target 1 G12U,C21U (mixed) RNA 1: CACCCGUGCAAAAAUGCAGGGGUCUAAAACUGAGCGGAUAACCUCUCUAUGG RNA 2: GGGAAUGGAUCCACAUCUACGAAUUCGUACUAUAGAGAGUUUAUCCGCUCACCGAGAUCGGAAGAGCACACGU", 0.87]
]}
